As shown below, each of these binders has a reported Max value.
Biological target: T1, Cyno B7-H4-Fc (Cyno B7H4 ECD, FcTM_6His) (cynomolgus monkey)
T1 construct: extracellular domain; also called cynomolgus B7-H4-Fc
Test: HTRF binding, human IgG1
Lab note: record the figure alone, no unit after it.

// known answers, use as guide
>  <binder>
ZY0EQD-E02 human IgG1 (antibody, V domains shown) VH: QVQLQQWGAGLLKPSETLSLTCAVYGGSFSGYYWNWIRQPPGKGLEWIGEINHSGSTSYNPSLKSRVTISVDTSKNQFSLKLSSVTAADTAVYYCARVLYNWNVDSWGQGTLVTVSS VL: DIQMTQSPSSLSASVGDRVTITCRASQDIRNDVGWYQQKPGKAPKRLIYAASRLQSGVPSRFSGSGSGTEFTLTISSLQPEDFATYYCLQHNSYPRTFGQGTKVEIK

>  <Max>
1130

$$$$
>  <binder>
ZY0EP0-C07 human IgG1 (antibody, V domains shown, also called ZY0EPO-C07) VH: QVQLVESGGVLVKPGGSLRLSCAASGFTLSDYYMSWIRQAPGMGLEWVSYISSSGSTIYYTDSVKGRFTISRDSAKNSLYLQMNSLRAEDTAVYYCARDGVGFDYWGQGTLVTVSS VL: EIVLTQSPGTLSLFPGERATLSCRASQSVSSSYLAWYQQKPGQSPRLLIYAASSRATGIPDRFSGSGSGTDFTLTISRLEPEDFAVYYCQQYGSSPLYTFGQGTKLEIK

>  <Max>
946

$$$$
>  <binder>
ZY0EOB-F05 human IgG1 (antibody, V domains shown) VH: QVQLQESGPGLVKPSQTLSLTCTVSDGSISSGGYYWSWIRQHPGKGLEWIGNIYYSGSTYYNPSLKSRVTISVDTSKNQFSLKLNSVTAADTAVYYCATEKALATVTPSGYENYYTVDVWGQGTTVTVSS VL: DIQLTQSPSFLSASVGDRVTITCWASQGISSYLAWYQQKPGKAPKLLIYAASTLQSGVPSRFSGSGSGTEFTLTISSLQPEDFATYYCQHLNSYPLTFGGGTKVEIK

>  <Max>
1480

$$$$

Please examine the following record next.
// query What does the record list as Max for ZY0EPQ-E02 human IgG1 (antibody, V domains shown) VH: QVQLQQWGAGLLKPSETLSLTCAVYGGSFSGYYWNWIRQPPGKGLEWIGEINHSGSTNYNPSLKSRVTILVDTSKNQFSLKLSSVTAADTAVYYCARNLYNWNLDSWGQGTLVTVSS VL: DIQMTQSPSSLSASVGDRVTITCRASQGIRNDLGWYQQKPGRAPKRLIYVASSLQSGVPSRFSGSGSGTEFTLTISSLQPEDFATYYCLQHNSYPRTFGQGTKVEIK ?
// result 987
